# experiment: clinical
# Design: dose or concentration left out as unconfirmed
# applied-conditions: female, human, in vivo
metric: AUC(0-inf)

### Prompt May I ask what AUC(0-inf) has been recorded for CC(=O)O[C@H]1C(=O)[C@@]2(C)[C@H]([C@H](OC(=O)c3ccccc3)[C@]3(O)C[C@H](OC(=O)[C@H](O)[C@@H](NC(=O)c4ccccc4)c4ccccc4)C(C)=C1C3(C)C)[C@]1(OC(C)=O)CO[C@@H]1C[C@@H]2O ?
### Response 5320 ng·h/mL

###

# experiment: clinical
# applied-conditions: female, human, in vivo
metric: Cmax (ng/mL)
One number for each entry, in ng/mL.

### Prompt # input compound: CC(=O)O[C@H]1C(=O)[C@@]2(C)[C@H]([C@H](OC(=O)c3ccccc3)[C@]3(O)C[C@H](OC(=O)[C@H](O)[C@@H](NC(=O)c4ccccc4)c4ccccc4)C(C)=C1C3(C)C)[C@]1(OC(C)=O)CO[C@@H]1C[C@@H]2O [paclitaxel] ; wanted: its Cmax
### Response 3300
